The reported numbers originate from paper PMC11876601.

Biological target: AAK1 (Homo sapiens)
Construct: endogenous in cells
Sequence (Q2M2I8 whole entry): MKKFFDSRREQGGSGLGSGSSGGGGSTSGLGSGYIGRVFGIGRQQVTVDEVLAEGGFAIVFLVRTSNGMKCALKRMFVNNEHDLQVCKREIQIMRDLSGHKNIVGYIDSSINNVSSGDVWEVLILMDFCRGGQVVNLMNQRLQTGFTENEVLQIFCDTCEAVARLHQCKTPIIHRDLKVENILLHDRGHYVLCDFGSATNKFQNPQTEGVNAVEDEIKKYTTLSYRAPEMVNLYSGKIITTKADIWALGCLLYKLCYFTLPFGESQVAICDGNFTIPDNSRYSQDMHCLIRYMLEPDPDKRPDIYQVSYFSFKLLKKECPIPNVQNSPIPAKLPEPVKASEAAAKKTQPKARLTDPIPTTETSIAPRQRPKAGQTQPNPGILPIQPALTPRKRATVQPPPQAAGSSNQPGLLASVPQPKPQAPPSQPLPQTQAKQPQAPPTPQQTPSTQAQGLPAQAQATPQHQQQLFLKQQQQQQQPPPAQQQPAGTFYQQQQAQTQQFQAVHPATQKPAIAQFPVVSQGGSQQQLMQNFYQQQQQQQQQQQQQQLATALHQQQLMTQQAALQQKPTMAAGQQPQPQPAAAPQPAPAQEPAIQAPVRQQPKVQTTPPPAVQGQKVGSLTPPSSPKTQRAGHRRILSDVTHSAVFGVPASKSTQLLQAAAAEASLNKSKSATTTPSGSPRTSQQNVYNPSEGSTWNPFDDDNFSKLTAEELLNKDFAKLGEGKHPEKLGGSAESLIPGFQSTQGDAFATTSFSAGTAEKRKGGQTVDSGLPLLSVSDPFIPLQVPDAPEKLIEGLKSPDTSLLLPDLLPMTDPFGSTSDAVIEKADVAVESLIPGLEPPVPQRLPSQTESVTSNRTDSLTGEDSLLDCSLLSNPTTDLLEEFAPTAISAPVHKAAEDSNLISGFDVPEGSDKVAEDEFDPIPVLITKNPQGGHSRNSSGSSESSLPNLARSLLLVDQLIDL
Assay: Kinobeads competition pulldown in AsPC-1 lysate
Conditions: AsPC-1 lysate; read-out: KDapp
Experimental: This was followed by incubation with Kinobeads ε (17.5 µl of settled beads) for 30 min at 4 °C to enrich kinases. […] For LC-MS/MS, dried peptides were reconstituted in 0.1% formic acid and analyzed on a Dionex Ultimate3000 nano HPLC (Thermo Scientific) coupled to an Orbitrap Fusion Tribrid mass spectrometer (Thermo Scientific), which was run in data-dependent mode. […]
READOUT TYPE: Kd (µM)
Expressed in µM, but write only the number.

Kd for `CNCc1ccc(-c2cc(-c3nc(-c4ccc(S(=O)(=O)C(C)C)cc4)cnc3N)on2)cc1` ?
0.0193

----------
System: PDO UME012
Assay: PDO viability assay (CellTiter-Glo, 72 h)
Assay type: cell-based, human
Conditions: Homo sapiens, PDO UME012, GEM + Elimusertib (ATRi) dose2, mean of replicates; read-out: EC50 mean
READOUT TYPE: pEC50
In simple prose, pEC50 is minus the logarithm base ten of a concentration in moles per litre.

What value of measured pEC50 is listed for `Nc1ccn([C@@H]2O[C@H](CO)[C@@H](O)C2(F)F)c(=O)n1` ?
8.51

----------
Test system: p-sites in DNA-damaged AsPC-1 cells
Experiment: decryptM dose-resolved phosphoproteomics of ATRi in GEM-pre-treated cells
Assay type: cell-based, human
Conditions: HMGA1-pS9
READOUT TYPE: Log2 PTM response (GEM+ATRi vs. GEM)
API note: the answer field is a bare number with no unit suffix.

Value lookup for Log2 PTM response (GEM+ATRi vs. GEM); key = `C[C@@H]1COCCN1c1cc(-c2ccnn2C)c2ccnc(-c3ccn[nH]3)c2n1`
-1.4

Please look up its Log2 PTM response (GEM+ATRi vs. GEM): `C[C@@H]1COCCN1c1cc(C2([S@](C)(=N)=O)CC2)nc(-c2cc[nH]c3nccc2-3)n1`
-2

Fill in the blank: the reported Log2 PTM response (GEM+ATRi vs. GEM) of `CNCc1ccc(-c2cc(-c3nc(-c4ccc(S(=O)(=O)C(C)C)cc4)cnc3N)on2)cc1` is ____.
-3

Recorded Log2 PTM response (GEM+ATRi vs. GEM) of `Nc1nn2cc(F)cnc2c1C(=O)Nc1cncc(F)c1N1CCC(C(=O)N2CCN(C3COC3)CC2)CC1` , please.
-2

----------
Tested on: MiaPaCa-2
Test: cells
Set-up: Viability of PDAC cell lines, ATPlite luminescence, 11-dose single-agent curve fit
Settings: 72 h; read-out: EC50
READOUT TYPE: pEC50
Here pEC50 is given on a logarithmic scale as minus log10 of the concentration in mol/L.

# get_value(readout='pEC50', item= `O=C(Nc1cnn2ccc(N3CCC[C@@H]3c3cc(F)ccc3F)nc12)N1CC[C@H](O)C1` )
7.27

----------
Tested on: HPDE
Assay: cells
Design: Viability of PDAC cell lines, ATPlite luminescence, 11-dose single-agent curve fit
Conditions: 72 h; read-out: EC50
READOUT TYPE: EC50

GET /values?readout=EC50&item= `O=C(Nc1cnn2ccc(N3CCC[C@@H]3c3cc(F)ccc3F)nc12)N1CC[C@H](O)C1`
0.459 µM

----------
Test system: Colo-357
Test: cells
Parameters: ATPlite luminescence viability of PDAC cell lines, 11-dose single-agent curves, 4-parameter fit
Settings: Homo sapiens, COLO357, 72 h, read-out: EC50 [nM]
READOUT TYPE: EC50 (nM)
# number only, unit nM dropped from output

May I ask what EC50 has been recorded for `NC(=O)c1cccc2cn(-c3ccc([C@@H]4CCCNC4)cc3)nc12` ?
1160

Please give the measured EC50 for this compound: `CO[C@]1(C(=O)N[C@@H](C)c2ccc(-n3cc(F)cn3)nc2)CC[C@H](c2nc(C)cc(Nc3cc(C)[nH]n3)n2)CC1`
6960

// EC50 lookup, key: `CC[C@@H]1C(=O)N(C)c2cnc(Nc3ccc(C(=O)N[C@H]4CC[C@H](N5CCN(CC6CC6)CC5)CC4)cc3OC)nc2N1C(C)C`
19.8

# EC50 lookup, item `Cc1nc(NC(=O)N2CCC[C@H]2C(N)=O)sc1-c1ccnc(C(C)(C)C(F)(F)F)c1`
355

Entry `C[C@@H](Oc1cc(-c2cnn(C3CCNCC3)c2)cnc1N)c1c(Cl)ccc(F)c1Cl` : reported EC50 = ?
3820

Requested read-out: EC50. Entry: `Nc1cc(C(F)(F)F)c(-c2cc(N3CCOCC3)nc(N3CCOCC3)n2)cn1`
403

// query EC50 value for entry `CS(=O)(=O)CCNCc1ccc(-c2ccc3ncnc(Nc4ccc(OCc5cccc(F)c5)c(Cl)c4)c3c2)o1`
815

# get_value(readout='EC50', item= `CCOc1cc2ncc(C#N)c(Nc3ccc(OCc4ccccn4)c(Cl)c3)c2cc1NC(=O)/C=C/CN(C)C` )
1280

Given `COc1c(OCCCN2CCOCC2)ccc2c1N=C(NC(=O)c1cnc(N)nc1)N1CCN=C21` , state its recorded EC50.
17.6

State the recorded EC50 for this entry: `Cc1ccc(C(=O)Nc2ccc(CN3CCN(C)CC3)c(C(F)(F)F)c2)cc1C#Cc1cnc2cccnn12`
9250

Record request: EC50 value, item `COc1cc(Nc2c(C#N)cnc3cc(OCCCN4CCN(C)CC4)c(OC)cc23)c(Cl)cc1Cl`
5090

For `CC[C@H](Nc1ncnc2[nH]cnc12)c1nc2cccc(F)c2c(=O)n1-c1ccccc1` , what is its reported EC50?
3360

Please report the recorded EC50 for `CN(C)CCCOc1ccc(-c2ccc3ncc4c(c3c2)n(C2CCOCC2)c(=O)n4C)cn1` .
6410

For the compound `CN1CCN(c2ccc3nc(-c4c(N)c5c(F)cccc5[nH]c4=O)[nH]c3c2)CC1` , what EC50 is on record?
4350

Give the measured EC50 of `COC(=O)N[C@@H](C)CNc1nccc(-c2cn(C(C)C)nc2-c2cc(Cl)cc(NS(C)(=O)=O)c2F)n1` .
1020

Which EC50 is listed for `C[C@@H]1COC(Nc2ccc3ncnc(Nc4ccc(OCc5nccs5)c(Cl)c4)c3c2)=N1` ?
676

----------
Kindly state log10 of EC50 for each of the entries shown.
System: FAMPAC
Experiment: cells
Parameters: ATPlite luminescence viability of PDAC cell lines, 11-dose single-agent curves, 4-parameter fit
Details: 72 h, read-out: EC50 [nM]
Lab note - EC50 converted to log10 from values in nM.

# get_value(readout='log10 of EC50', item= COC(=O)N[C@@H](C)CNc1nccc(-c2cn(C(C)C)nc2-c2cc(Cl)cc(NS(C)(=O)=O)c2F)n1 [Encorafenib] )
2.97

# lookup: log10 of EC50 of COc1cc(Nc2ncc3c(n2)-c2ccc(Cl)cc2C(c2c(F)cccc2OC)=NC3)ccc1C(=O)O [Alisertib]
1.84

// log10 of EC50 lookup, key: COc1cc(OC)c(/C=C/S(=O)(=O)Cc2ccc(OC)c(NCC(=O)O)c2)c(OC)c1 [Rigosertib]
1.45

Using the record for CCOc1cc2ncc(C#N)c(Nc3ccc(OCc4ccccn4)c(Cl)c3)c2cc1NC(=O)/C=C/CN(C)C [Neratinib] , report its log10 of EC50.
3.12

Given the molecule CN1CCN(CCOc2cc(OC3CCOCC3)c3c(Nc4c(Cl)ccc5c4OCO5)ncnc3c2)CC1 [Saracatinib] , what is its reported log10 of EC50?
3.69

----------
System: BxPC-3
Test: cells
Set-up: ATPlite luminescence viability of PDAC cell lines, 11-dose single-agent curves, 4-parameter fit
Settings: Homo sapiens, BXPC-3, 72 h, read-out: EC50 [nM]
// returns FALSE unless EC50 is strictly below 3000 nM, in which case TRUE

Could you please tell me whether EC50 recorded for C#Cc1cccc(Nc2ncnc3cc(OCCOC)c(OCCOC)cc23)c1 [Erlotinib] is less than 3000 nM?
TRUE

Is EC50 of Cn1cnc2c(F)c(Nc3ccc(Br)cc3F)c(C(=O)NOCCO)cc21 [Binimetinib] strictly below 3000 nM?
TRUE

Input CC(C)NC(=O)[C@H]1CC[C@@H](n2/c(=N/C(=O)c3ccc(F)cc3)[nH]c3ccc(CN4CCC(C(C)(C)O)CC4)cc32)CC1 [Belizatinib] ; condition: EC50 strictly below 3000 nM. Does it hold?
TRUE

hey, is EC50 for CC1(COc2ccc3c(c2)ncn3-c2ccc3cccc(N4CCC(N)CC4)c3n2)COC1 [Crenolanib] lower than 3000 nM or not?
FALSE

Consider the compound O=C(c1ccc(F)c(F)c1Nc1ccc(I)cc1F)N1CC(O)([C@@H]2CCCCN2)C1 [Cobimetinib] . Is its EC50 strictly less than 3000 nM?
TRUE

Answer whether the compound Cc1nc(-c2cn3c(n2)-c2ccc(-c4cnn(C(C)(C)C(N)=O)c4)cc2OCC3)n(C(C)C)n1 [Taselisib] has EC50 strictly less than 3000 nM
TRUE

# strict comparison: is reported EC50 < 3000 nM? input = CN1CCC(COc2cnc(-c3cccc(Cn4nc(-c5cccc(C#N)c5)ccc4=O)c3)nc2)CC1 [Tepotinib]
FALSE
